test: Caspase-3/7 induction in CHO-K1 cells by small molecules, qHTS cell viability counter screen (AID 1346979); conditions: CellTiter-Fluor fluorescence, 17 h; series mostly up to 92.4 µM; also: nearly all actives have a fitted effect of over 35% in size
Records with an inconclusive call do not appear. The source made the active and inactive calls. Calls follow the shape of the dose curve; as a rule, active = well fitted cell-killing curve with a large enough effect in the repeat runs; inconclusive = weak or mixed curves, or effect the other way; inactive = no such curve, though single readings can be large or run the other way.
Write down the outcome that applies. Available outcomes: active, inactive

// param item: `Cc1cc(C)c(/C=C2\C(=O)Nc3ccccc32)[nH]1` ; yields the recorded call
inactive

// param item: `Clc1ccnc(Cl)n1` ; yields the recorded call
inactive

// param item: `O=C(O)[C@H](O)[C@@H](O)[C@H](O[C@@H]1O[C@H](CO)[C@H](O)[C@H](O)[C@H]1O)[C@H](O)CO` ; yields the recorded call
inactive

// param item: `Cc1c(C)c2c(c(C)c1OC(=O)c1cccnc1)CC[C@@](C)(CCC[C@H](C)CCC[C@H](C)CCCC(C)C)O2` ; yields the recorded call
inactive

// param item: CC(CCc1ccccc1)NCC(O)c1ccc(O)c(C(N)=O)c1 (centres undefined) ; yields the recorded call
active

// param item: `OC[C@H]1O[C@H](O[C@H]2O[C@H](CO)[C@@H](O)[C@H](O)[C@H]2O)[C@H](O)[C@@H](O)[C@@H]1O` ; yields the recorded call
inactive

// param item: `Nc1nc(-c2ccccc2)cs1` ; yields the recorded call
inactive

// param item: `COc1c(C)c2c(c(O)c1C/C=C(\C)CCC(=O)OCCN1CCOCC1)C(=O)OC2` ; yields the recorded call
active

// param item: `Fc1ccc(C(c2ccc(F)cc2)N2CCNCC2)cc1` ; yields the recorded call
inactive

// param item: `CCC(C)[O-].CCC(C)[O-].CCOC(=O)/C=C(/C)[O-].[Al+3]` ; yields the recorded call
inactive

// param item: CCCCCCCCCCCC(=O)OCC(C)OC(=O)CCCCC(=O)O (centres undefined) ; yields the recorded call
inactive

// param item: `O=C(O)c1cc(-c2ccc(F)cc2F)ccc1O` ; yields the recorded call
inactive

// param item: `CCCCCCCCCCCCOCCOCCOCCOCCOCCOCCOCCOCCOCCO` ; yields the recorded call
active

// param item: C=CCCC(=O)/C=C/C1C(C)=CCCC1(C)C (centres undefined) ; yields the recorded call
inactive

// param item: `C=C(C)C(=O)OCCCCCCCCCC` ; yields the recorded call
active

// param item: `CC(=O)c1ccc(C(C)=O)cc1` ; yields the recorded call
inactive

// param item: `ClCCl` ; yields the recorded call
inactive

// param item: `COC1=C(OC)C(=O)C(CCCCCCCCCCO)=C(C)C1=O` ; yields the recorded call
active

// param item: `CC(C)OC(=O)C(O)(CC(=O)O)CC(=O)O` ; yields the recorded call
inactive

// param item: `Cc1ccc(-c2ccccc2)cc1` ; yields the recorded call
inactive

// param item: CC(C)(C)c1ccc(C(O)CCCN2CCC(C(O)(c3ccccc3)c3ccccc3)CC2)cc1 (centres undefined) ; yields the recorded call
active

// param item: `CCO[Si](OCC)(OCC)OCC` ; yields the recorded call
inactive

// param item: `CCC(=O)C(=O)CC` ; yields the recorded call
inactive

// param item: `CCn1c2ccccc2c2cc([N+](=O)[O-])ccc21` ; yields the recorded call
inactive

// param item: `FC(F)(F)c1cccc(Cl)c1` ; yields the recorded call
inactive

// param item: CCOC(=O)NNc1ccc(N(CC)CC(C)O)nn1 (centres undefined) ; yields the recorded call
inactive

// param item: `CN(C)CCN1CCN(c2cccc(Cl)c2)C1=O` ; yields the recorded call
inactive

// param item: `C=C(C)c1cccc(C(=C)C)c1` ; yields the recorded call
inactive

// param item: `C/C=C/C=C/COC(=O)C(C)C` ; yields the recorded call
active

// param item: `COc1ccc2c(c1)c(CC(=O)OC/C=C(\C)CC/C=C(\C)CCC=C(C)C)c(C)n2C(=O)c1ccc(Cl)cc1` ; yields the recorded call
inactive

// param item: `C#Cc1ccc(-c2ccccc2F)cc1` ; yields the recorded call
inactive

// param item: `CN1CCN(Cc2cc(-c3ccc4[nH]c(=O)oc4c3)co2)[C@@H](c2ccc(F)cc2)C1` ; yields the recorded call
active

// param item: `CCCCCCCC/C=C\CCCCCCCCN` ; yields the recorded call
inactive

// param item: `COC(C)=O` ; yields the recorded call
inactive

// param item: `C=CC(=O)Nc1cc2c(Nc3ccc(F)c(Cl)c3)ncnc2cc1OCCCN1CCOCC1` ; yields the recorded call
active

// param item: Cc1c(F)c(N2CCNC(C)C2)cc2c1c(=O)c(C(=O)O)cn2C1CC1 (centres undefined) ; yields the recorded call
inactive

// param item: `Nc1nc(N)nc(-c2cc(Cl)ccc2Cl)n1` ; yields the recorded call
inactive

// param item: `COC(=O)Nc1nc2ccc(C(=O)c3ccccc3)cc2[nH]1` ; yields the recorded call
active

// param item: CCCCN(CCCC)CC(O)c1cc(Cl)cc2c1-c1ccc(Cl)cc1/C2=C/c1ccc(Cl)cc1 (centres undefined) ; yields the recorded call
active

// param item: `CC/C=C\CCCCCO` ; yields the recorded call
inactive

// param item: `COc1cccc(OC)c1C(=O)O` ; yields the recorded call
inactive

// param item: `[Cu+]` ; yields the recorded call
inactive

// param item: `Cc1cc(C(C)(C)C)c(O)c(C)c1Cn1c(=O)n(Cc2c(C)cc(C(C)(C)C)c(O)c2C)c(=O)n(Cc2c(C)cc(C(C)(C)C)c(O)c2C)c1=O` ; yields the recorded call
active

// param item: `Clc1sc(Cl)c(Cl)c1Cl` ; yields the recorded call
inactive

// param item: CCC(C)n1ncn(-c2ccc(N3CCN(c4ccc(OC[C@H]5CO[C@](Cn6cncn6)(c6ccc(Cl)cc6Cl)O5)cc4)CC3)cc2)c1=O (some centres undefined) ; yields the recorded call
active

// param item: `O=C(c1ccc(O)c(O)c1)c1ccc(O)cc1O` ; yields the recorded call
active

// param item: `CN(C)C(=O)COC(=O)Cc1ccc(OC(=O)c2ccc(N=C(N)N)cc2)cc1` ; yields the recorded call
inactive

// param item: `O=[N+]([O-])c1cccc(C(F)(F)F)c1` ; yields the recorded call
inactive

// param item: `Cc1c(N)cccc1C(F)(F)F` ; yields the recorded call
inactive
